src = PubChem BioAssay AID1159580

Experiment: chemical genetic growth profiling, strain panel (AID 1159580);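 also: tested at 20 µM; growth read once vehicle control cultures reached saturation at 30 °C; 1 = growth at the plate median or of vehicle wells; lower values mean less growth of the strain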
Conditions: S. cerevisiae deletion strains, growth OD, locus YMR231W, strain pep5, active compounds read low
About 2,000 (36%) of roughly 5,500 compounds were called active. About 18% were inconclusive and are not listed. The list shows a part of the results.
Reported normalized growth by item:
// no unit string in output, number only

Here are 5 molecules together with their reported answers.
{"columns": ["Molecule", "Assay result"],
 "data": [
  ["Cc1ccc(-c2nc3ccc(C)cn3c2CC(=O)N(C)C)cc1", 1.02],
  ["NCCCN", 0.946],
  ["CC1(C)S[C@@H]2[C@H](NC(=O)C(C(=O)O)c3ccccc3)C(=O)N2[C@H]1C(=O)O (some centres undefined)", 0.988],
  ["CCn1nc(C(=O)O)c(=O)c2cc3c(cc21)OCO3", 1.01],
  ["O=c1c(O)cc([C@H]2Oc3cc(O)cc(O)c3C[C@H]2O)cc2c([C@H]3Oc4cc(O)cc(O)c4C[C@H]3O)cc(O)c(O)c12", 1.02]
]}

Record summary for `NC[C@H]1O[C@H](O[C@H]2[C@H](O)[C@@H](O[C@H]3O[C@H](CO)[C@@H](O)[C@H](N)[C@H]3O)[C@H](N)C[C@@H]2N)[C@H](N)[C@@H](O)[C@@H]1O` : reported normalized growth = 0.997

---

Assay: chemical genetic growth profiling, strain panel (AID 1159580);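 also: tested at 20 µM; growth read once vehicle control cultures reached saturation at 30 °C; 1 = growth at the plate median or of vehicle wells; lower values mean less growth of the strain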
Conditions: S. cerevisiae deletion strains, growth OD, locus YPR163C, strain tif3
Out of some 5,500 compounds screened, about 2,000 (36%) were called active. About 18% were inconclusive and are not listed. Rule as the data show it: active = normalized growth mostly below about 0.91 (no sharp cut-off); inconclusive = no clear call, values can overlap the other calls; inactive = mostly above about 0.92. This is one part of the list.
A correct response names exactly one class from active, inactive

Please review the entries below; each comes with its answer.
{"columns": ["Compound", "Group"],
 "data": [
  ["CCC(=O)O[C@]1(C(=O)CCl)[C@@H](C)CC2C3CCC4=CC(=O)C=C[C@]4(C)[C@@]3(F)[C@@H](O)C[C@@]21C (stereo partly specified)", "inactive"],
  ["O=C(/C=C(\\O)c1ccccc1)c1ccccc1O", "active"],
  ["NCCCN", "inactive"],
  ["CCC(=O)OCC(=O)[C@@]1(OC(=O)CC)[C@@H](C)CC2C3CCC4=CC(=O)C=C[C@]4(C)C3(F)[C@@H](O)C[C@@]21C (stereo partly specified)", "inactive"],
  ["CCC(=O)OCC(=O)C1(OC(=O)CC)C(C)CC2C3CCC4=CC(=O)C=CC4(C)C3(Cl)C(O)CC21C (stereo unspecified)", "inactive"],
  ["COC1=CC(=O)C=C(OC)C1=O", "inactive"],
  ["NC(=O)c1ccccc1O", "inactive"],
  ["O=C(O)c1ccccc1O", "inactive"]
]}

Query: Hi, do you know how `O=C(CCCN1CCC2(CC1)C(=O)NCN2c1ccccc1)c1ccc(F)cc1` came out in this test?
Response: inactive

Query: Hi, do you know how `COc1cc(C(=O)O)cc(OC)c1OC` came out in this test?
Response: inactive

Query: Hi, do you know how `CCn1nc(C(=O)O)c(=O)c2cc3c(cc21)OCO3` came out in this test?
Response: inactive

---

Test: chemical genetic growth profiling, strain panel (AID 1159580);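 also: tested at 20 µM; growth read once vehicle control cultures reached saturation at 30 °C; 1 = growth at the plate median or of vehicle wells; lower values mean less growth of the strain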
Details: S. cerevisiae deletion strains, growth OD, locus YNL067W, strain RPL9B, active compounds read low
About 2,000 (36%) of roughly 5,500 compounds were called active. Not shown: some 18% with an inconclusive outcome. Some of the results follow.
Reported normalized growth by item:
// no unit string in output, number only

Here are 5 compounds together with their reported answers.
{"columns": ["Compound", "normalized growth"],
 "data": [
  ["NC[C@@H]1O[C@H](O[C@@H]2[C@@H](CO)OC(O[C@@H]3[C@@H](O)[C@H](N)C[C@H](N)[C@H]3O[C@H]3O[C@H](CO)[C@@H](O)[C@H](O)[C@H]3N)[C@@H]2O)[C@H](N)[C@@H](O)[C@@H]1O (stereo partly specified)", 0.97],
  ["CCCCC(=O)O[C@]1(C(=O)CO)[C@@H](C)CC2C3CCC4=CC(=O)C=C[C@]4(C)[C@@]3(F)C(O)C[C@@]21C (stereo partly specified)", 0.964],
  ["C[C@H]1[C@H](C)CC[C@]2(C(=O)O)CC[C@]3(C)C(=CCC4[C@@]5(C)C[C@@H](O)[C@H](O)[C@@](C)(CO)C5[C@H](O)C[C@]43C)[C@H]12 (stereo partly specified)", 0.942],
  ["CCC(=O)OCC(=O)[C@@]1(OC(=O)CC)[C@@H](C)CC2C3CCC4=CC(=O)C=C[C@]4(C)C3(F)[C@@H](O)C[C@@]21C (stereo partly specified)", 0.994],
  ["CC(=O)OCC(=O)[C@@]1(O)CCC2C3C[C@H](C)C4=CC(=O)C=CC4(C)C3[C@@H](O)CC21C (stereo partly specified)", 0.996]
]}

Below: the item to evaluate.
Record summary for `CCc1ccc2c(O)c3c(cc2c1C(=O)OC)C(=O)c1c(O)ccc(O)c1C3=O` : reported normalized growth = 0.973
